Entries and their KIDNEY_TOTAL values follow.
Organism: Rattus norvegicus
measurement_protocol: Open TG-GATES - Regimen: Daily Repeat
Format: toxicity, organism-based, Sprague-Dawley
Parameters: regimen Daily Repeat, gender Male, age 6 weeks
protocol_conditions: in vivo, po, 300 mg/kg, 72 h, tissue Kidney, route gavage, dose level Middle, time 3 day

{"columns": ["compound", "KIDNEY_TOTAL / g"],
 "data": [
  ["CCCCNC(=O)NS(=O)(=O)c1ccc(C)cc1 [TOLBUTAMIDE]", 2],
  ["CC(S)C(=O)NCC(=O)O (centres undefined) [TIOPRONIN]", 2],
  ["CC(=O)[C@@]1(O)CC[C@H]2[C@@H]3C=C(Cl)C4=CC(=O)CC[C@]4(C)[C@H]3CC[C@@]21C [CHLORMADINONE]", 1.9],
  ["O=C(O)c1ccccc1Nc1ccccc1 [FENAMIC ACID]", 1.9]
]}

====

Species on record: Rattus norvegicus
measurement_protocol: Open TG-GATES - Regimen: Daily Repeat
Format: toxicity, organism-based, Sprague-Dawley
Parameters: regimen Daily Repeat, gender Male, age 6 weeks
protocol_conditions: in vivo, po, 0 mg/kg, 72 h, tissue Blood, route gavage, dose level Control, time 3 day
assay_metric: MCHC (%)

{"columns": ["molecule", "readout_unit", "quantitative_result"],
 "data": [
  ["CC(S)C(=O)NCC(=O)O (stereo not drawn)", "%", 33.1],
  ["NS(=O)(=O)c1cc(C(=O)O)c(NCc2ccco2)cc1Cl [FUROSEMIDE]", "%", 33.6],
  ["O=c1ccc2ccccc2o1", "%", 32.8],
  ["CCO", "%", 33.7],
  ["O=C(O)c1ccccc1Nc1ccccc1", "%", 33.3],
  ["COc1ccc([C@@H]2Sc3ccccc3N(CCN(C)C)C(=O)[C@@H]2OC(C)=O)cc1", "%", 32.7],
  ["Nc1ccc(Cc2ccc(N)cc2)cc1", "%", 34],
  ["CN(C/C=C/C#CC(C)(C)C)Cc1cccc2ccccc12", "%", 33.8],
  ["CCCCC1C(=O)N(c2ccccc2)N(c2ccccc2)C1=O", "%", 33.3],
  ["CN(CCOc1ccc(CC2SC(=O)NC2=O)cc1)c1ccccn1.O=C(O)/C=C\\C(=O)O (stereo not drawn) [ROSIGLITAZONE MALEATE]", "%", 33],
  ["CCCCNC(=O)NS(=O)(=O)c1ccc(C)cc1 [TOLBUTAMIDE]", "%", 32.4],
  ["CCN(CC)C(=S)SSC(=S)N(CC)CC", "%", 32.2],
  ["CC(=O)[C@@]1(O)CC[C@H]2[C@@H]3C=C(Cl)C4=CC(=O)CC[C@]4(C)[C@H]3CC[C@@]21C", "%", 32.6]
]}

====

Organism: Rattus norvegicus
measurement_protocol: Open TG-GATES - Regimen: Daily Repeat
Format: toxicity, organism-based, Sprague-Dawley
Parameters: regimen Daily Repeat, gender Male, age 6 weeks
protocol_conditions: in vivo, po, 300 mg/kg, 72 h, tissue Plasma, route gavage, dose level Middle, time 3 day
Entries and their LDH values follow.

{"columns": ["compound", "LDH [IU/L]"],
 "data": [
  ["CCCCNC(=O)NS(=O)(=O)c1ccc(C)cc1 [TOLBUTAMIDE]", 69.8],
  ["CC(S)C(=O)NCC(=O)O (centres undefined)", 205.6],
  ["O=C(O)c1ccccc1Nc1ccccc1", 119.8],
  ["CC(=O)[C@@]1(O)CC[C@H]2[C@@H]3C=C(Cl)C4=CC(=O)CC[C@]4(C)[C@H]3CC[C@@]21C", 243.2]
]}
